B1: LRRC45 (parent)
chain: DLSAANEKNLLLQNQVDELERKFR

# Variants of: B1
# PROTOCOL_NOTES: protein stability index of a GFP-peptide fusion (GPS, HEK-293T) (PSI 1-6); higher = more stable;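 further: lentivirally expressed fusions sorted by FACS into six bins by GFP to DsRed ratio, PSI derived from sequencing read proportions per bin multiplied by bin number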
# CONDITION_PARAMETERS: c terminus: a fixed tail appended
Record true (1) whenever protein stability index is at 4 or higher; record false (0) when lower.

Worked examples follow.
KLSAANEKNLLLQNQVDELERKFR [D1K]; true (1)
DDSAANEKNLLLQNQVDELERKFR [L2D]; true (1)
DLSAANEKNLLLQYQVDELERKFR [N14Y]; false (0)
DLSAANEKNLLLQNQVDELERDFR [K22D]; true (1)
DLSAANEKNLLLQDQVDELERKFR [N14D]; true (1)

Please look at the following variant next.
Request: Test whether the variant DLSAANEKNLLLQNQVDELSRKFR [E20S] records protein stability index of 4 or higher.
Response: false (0)
